The measured values listed here are drawn from patent US6506874.

Target Under Test: T1, recombinant human IGFBP-3 (human, UniProt P17936 28-291)
T1 construct: Secreted recombinant protein
T1 sequence (P17936 28-291 limits assumed): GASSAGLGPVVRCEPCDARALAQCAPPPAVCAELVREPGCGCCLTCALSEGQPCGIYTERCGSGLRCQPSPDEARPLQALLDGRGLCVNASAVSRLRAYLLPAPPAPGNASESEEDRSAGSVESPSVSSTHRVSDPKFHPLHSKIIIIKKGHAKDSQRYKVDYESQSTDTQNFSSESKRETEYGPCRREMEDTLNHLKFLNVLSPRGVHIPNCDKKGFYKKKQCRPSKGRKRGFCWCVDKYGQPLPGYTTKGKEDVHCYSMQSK
Test Description: competitive phage ELISA, soluble IGFBP-3
Endpoint: pIC50
Please express pIC50 as -log10 of the molar concentration.

Guide cases for pIC50, answers given:
IGF-I P28A (on G1S-A70V) displayed on phage (ligand, not shown: large carriers; small tags and cut ends) SPETLCGAELVDALQFVCGDRGFYFNKATGYGSSSRRAPQTGIVDECCFRSCDLRRLEMYCAPLKPAKSV : 8.85
IGF-I T29A (on G1S-A70V) displayed on phage (ligand, not shown: large carriers) SPETLCGAELVDALQFVCGDRGFYFNKPAGYGSSSRRAPQTGIVDECCFRSCDLRRLEMYCAPLKPAKSV : 8.91
IGF-I P2A (on G1S-A70V) displayed on phage (ligand, not shown: M13 gene III fragment (residues 249-406) used as phage-display carrier, and its junction to IGF-I) SAETLCGAELVDALQFVCGDRGFYFNKPTGYGSSSRRAPQTGIVDECCFRSCDLRRLEMYCAPLKPAKSV : 9.09

Quick one: pIC50 of IGF-I S34A (on G1S-A70V) displayed on phage (ligand, not shown: large carriers) SPETLCGAELVDALQFVCGDRGFYFNKPTGYGSASRRAPQTGIVDECCFRSCDLRRLEMYCAPLKPAKSV ?
8.78

Any idea what its pIC50 is? The binder is IGF-I Y31A (on G1S-A70V) displayed on phage (ligand, not shown: large carriers) SPETLCGAELVDALQFVCGDRGFYFNKPTGAGSSSRRAPQTGIVDECCFRSCDLRRLEMYCAPLKPAKSV
9.14

Data request, read-out pIC50, for IGF-I G30A (on G1S-A70V) displayed on phage (ligand, not shown: large carriers) SPETLCGAELVDALQFVCGDRGFYFNKPTAYGSSSRRAPQTGIVDECCFRSCDLRRLEMYCAPLKPAKSV
9.24

Any idea what pIC50 was measured for IGF-I S33A (on G1S-A70V) displayed on phage (ligand, not shown: large carriers) SPETLCGAELVDALQFVCGDRGFYFNKPTGYGASSRRAPQTGIVDECCFRSCDLRRLEMYCAPLKPAKSV ?
9.00

Need pIC50 of IGF-I G32A (on G1S-A70V) displayed on phage (ligand, not shown: large carriers) SPETLCGAELVDALQFVCGDRGFYFNKPTGYASSSRRAPQTGIVDECCFRSCDLRRLEMYCAPLKPAKSV , thanks.
9.12

Entry IGF-I G7A (on G1S-A70V) displayed on phage (ligand, not shown: large carriers, disulfide (positions not given here); not fully specified; also: displayed on M13 phage as gene III fusion) SPETLCAAELVDALQFVCGDRGFYFNKPTGYGSSSRRAPQTGIVDECCFRSCDLRRLEMYCAPLKPAKSV has what pIC50?
8.34

What does the data say about its pIC50? Entry: IGF-I E9A (on G1S-A70V) displayed on phage (ligand, not shown: large carriers, disulfide (positions not given here); not fully specified; also: displayed on M13 phage as gene III fusion) SPETLCGAALVDALQFVCGDRGFYFNKPTGYGSSSRRAPQTGIVDECCFRSCDLRRLEMYCAPLKPAKSV
8.88
